Test system: Staphylococcus aureus subsp. aureus COL
experimentalDetails: Inhibition of Staphylococcus aureus COL TarO assessed as concentration of compound for potentiation of action of imipenem-mediated bacterial growth inhibition
parameter: MITC95 (µM)
Numbers only, in µM.

Give me MITC95 for each of these compounds, listed below.
1. CCC1CCN(c2nc3ccccc3n2CCC(=O)N(CC)C2CCCCC2)CC1
2. CC1(C)[C@@H]2CC[C@@]1(C)[C@H](NC(=O)CCn1c(C3CCCCC3)nc3ccccc31)C2
3. CCN(C(=O)CCn1c2cccc(Br)c2nc1[C@H]1CC[C@H](CC)CC1)C1CCCCC1
4. CCN(C(=O)CCn1c2cccc(C)c2nc1[C@H]1CC[C@H](CC)CC1)C1CCCCC1
5. CCN(C(=O)CCn1c(C2CCC(C(C)(C)C)CC2)nc2ccccc21)C1CCCCC1 (stereo not given)
6. CCN(C(=O)CCn1c(N2CCC(C)CC2)nc2ccccc21)C1CCCCC1

[0.1, 1.6, 0.3, 0.1, 0.015, 1.3]

Identify measured MITC95 corresponding to "CCN(C(=O)CCn1c2cc(Br)ccc2nc1[C@H]1CC[C@H](CC)CC1)C1CCCCC1"
0.031

* * *

experimentalDetails: Binding affinity to Methicillin-resistant Staphylococcus aureus COL TarG assessed as suppression of targocil-mediated bacterial growth inhibition after 20 hrs in presence of L-638
Parameters: species or system Staphylococcus aureus subsp. aureus COL
parameter: pEC50
Give bare numbers, as −log10 of the molar value.

Recorded pEC50, per entry:
Name the recorded pEC50 of the compound listed here: "CCN(C(=O)CCn1c(N2CCC(C(C)(C)C)CC2)nc2ccccc21)C1CCCCC1"
6.89

Identify pEC50 associated with the compound "CCN(C(=O)CCn1c2cc(Br)ccc2nc1[C@H]1CC[C@H](CC)CC1)C1CCCCC1"
6.48

For the next question, use this compound.
Identify the reported pEC50 for the following entry. CCN(C(=O)CCn1c(C2CCC(C(C)(C)C)CC2)nc2ccccc21)C1CCCCC1 (stereo unspecified)
7.30

* * *

System: Staphylococcus aureus subsp. aureus COL
experimentalDetails: Inhibition of Staphylococcus aureus COL TarO assessed as concentration of compound for potentiation of action of imipenem-mediated bacterial growth inhibition
For each of the compounds below, state its MITC95.

Provide one value: measured MITC95 of "CC1(C)C2CC[C@]1(C)[C@@H](NC(=O)CCn1c(C3CCN(S(C)(=O)=O)CC3)nc3ccccc31)C2"
> 200 µM

Please look at the items below and tell me MITC95 for each one, in order.
1. CC1(C)C2CC[C@]1(C)[C@@H](NC(=O)CCn1c(C3CCNCC3)nc3ccccc31)C2
2. CCN1CCC(c2nc3ccccc3n2CCC(=O)N[C@H]2CC3CC[C@@]2(C)C3(C)C)CC1

1. > 200 µM
2. > 200 µM

* * *

Provide the recorded EC50 for the entries that follow.
experimentalDetails: Binding affinity to Methicillin-resistant Staphylococcus aureus COL TarG assessed as suppression of targocil-mediated bacterial growth inhibition after 20 hrs in presence of L-638
Design: species or system Staphylococcus aureus subsp. aureus COL

Please report the measured EC50 for "CCN1CCC(c2nc3ccccc3n2CCC(=O)N[C@H]2CC3CC[C@@]2(C)C3(C)C)CC1"
> 200 µM

Working through the 2 compounds below one at a time, give EC50 for each.
1. CC(=O)N1CCC(c2nc3ccccc3n2CCC(=O)N[C@H]2CC3CC[C@@]2(C)C3(C)C)CC1
2. CC1(C)C2CC[C@]1(C)[C@@H](NC(=O)CCn1c(C3CCN(S(C)(=O)=O)CC3)nc3ccccc31)C2

> 200 µM
> 200 µM

Ref: ChEMBL document CHEMBL4425162
